Origin of the recorded values: ChEMBL document CHEMBL1201862

# Test system: LOX IMVI
# Measurement protocol: NCI tumour cell line growth inhibition, 48 h
Activity calls are given as the source filed them. Rule as the data show it: active = GI50 up to about 1.1 µM and inactive = higher.
Listed below: GI50 values for each entry.

# Molecule, GI50
measured = [
    ("CN(C)C(=O)O/N=C1/C(=C2/C(=O)Nc3ccccc32)Nc2ccccc21", "86.3 µM (inactive)"),
    ("CCc1cccc(=O)c([O-])c1.CCc1cccc(=O)c([O-])c1.[Bi+3].[Cl-]", "7.53 µM (inactive)"),
    ("N#C/C(C(=O)Nc1ccc(Cl)cc1)=C(/N)N1CCOCC1", "> 100 µM (inactive)"),
    ("COc1cccc(-c2nc(O)c3ccccc3n2)c1", "52.6 µM (inactive)"),
    ("Cc1nc(-n2nc(-c3ccccc3)cc2-c2ccccc2)sc1C(=O)/C=C/c1ccc(Cl)c(Cl)c1", "13.1 µM (inactive)"),
    ("CC(C)OP(=O)(OC(C)C)/C(C#N)=C/c1ccco1", "> 100 µM (inactive)"),
    ("COc1cc(/C=C/c2ccccn2)cc(OC)c1OC", "> 10 µM (inactive)"),
    ("CCOC(=O)C1=C(C)NC(=S)NC1c1ccccc1 (configuration not stated)", "> 63.7 µM (inactive)"),
    ("CS(=O)(=O)OCCN(CCOS(C)(=O)=O)c1ccc(/C=N/c2ccc(-c3csc(COc4ccccc4)n3)cc2)cc1", "4.27 µM (inactive)"),
    ("CCOC(=O)/C=C\\C(C#N)(C#N)/N=C/c1ccsc1", "4.06 µM (inactive)"),
    ("CC1COC(C)(C)P(=O)(c2ccccc2)C1 (configuration not stated)", "> 100 µM (inactive)"),
    ("O=C(NN1C(=O)CSC1c1ccc(Cl)c(Cl)c1)c1ccncc1 (configuration not stated)", "66.4 µM (inactive)"),
]
